test system: LPS-induced cytokine release; assay: LPS-induced systemic inflammation, plasma cytokines post LPS; parameters: species or system mice; conditions: mouse, in vivo
PROPERTY_MEASURED: potency of conjugated linker/payload in the short term LPS activation model (conclusions)

[
  {
    "COMPOUND_STRING": "C[C@H](NC(=O)CBr)C(=O)N[C@@H](C)C(=O)NC12CC(Cc3ccc([C@@H]4O[C@@H]5C[C@H]6[C@@H]7CCC8=CC(=O)C=C[C@]8(C)[C@H]7[C@@H](O)C[C@]6(C)[C@]5(C(=O)CO)O4)cc3)(C1)C2",
    "VALUE_OBSERVED": "efficacious"
  },
  {
    "COMPOUND_STRING": "C[C@]12C=CC(=O)C=C1CC[C@@H]1[C@@H]2[C@@H](O)C[C@@]2(C)[C@H]1C[C@H]1O[C@@H](c3ccc(CC45CC(NC(=O)[C@H](CCCCN)NC(=O)CNC(=O)CBr)(C4)C5)cc3)O[C@]12C(=O)CO",
    "VALUE_OBSERVED": "efficacious"
  }
]
